Target: TDO (A172 cells) (Homo sapiens)
Construct: This assay utilised cancer cells which expressed either TDO or IDO; host or cells: A172 human glioblastoma cells
Sequence (P48775 whole entry): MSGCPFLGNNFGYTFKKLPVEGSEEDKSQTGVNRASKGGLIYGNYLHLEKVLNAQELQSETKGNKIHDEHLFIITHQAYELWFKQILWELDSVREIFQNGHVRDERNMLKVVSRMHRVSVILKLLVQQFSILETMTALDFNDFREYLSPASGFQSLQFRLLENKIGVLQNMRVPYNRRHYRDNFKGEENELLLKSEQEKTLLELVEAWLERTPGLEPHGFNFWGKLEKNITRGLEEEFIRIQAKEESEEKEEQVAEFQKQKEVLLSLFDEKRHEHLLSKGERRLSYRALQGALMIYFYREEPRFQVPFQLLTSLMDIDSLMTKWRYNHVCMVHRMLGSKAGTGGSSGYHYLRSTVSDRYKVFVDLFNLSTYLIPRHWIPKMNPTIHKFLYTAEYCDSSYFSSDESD
Test: TDO cell-based assay (A172), kynurenine production
Settings: A172 human glioblastoma cells, 500 μM L-Trp, 48 h, kynurenine by absorbance at 490 nm

| COMPOUND | TEST_TARGET | TDO cellular assay (A172) pIC50 |
| --- | --- | --- |
| COc1ccc2[nH]c(C(=O)NC3(c4ccccc4)COC3)cc2c1 | TDO (A172 cells) (Homo sapiens) | − (− = pIC50 <4.50) |
| CC(NC(=O)c1cc2cc(Cl)ccc2[nH]1)c1ccc(C(=O)N2CCOCC2)cc1 (centres unmarked) | TDO (A172 cells) (Homo sapiens) | − (− = pIC50 <4.50) |
| Cc1c(C2(NC(=O)c3cc4cc(Cl)ccc4[nH]3)CC2)cnn1C | TDO (A172 cells) (Homo sapiens) | − (− = pIC50 <4.50) |
| O=C(NC1(c2ccccc2)CCCCC1)c1cc2cc(Cl)ccc2[nH]1 | TDO (A172 cells) (Homo sapiens) | − (− = pIC50 <4.50) |
| COCCn1cc(C(C)NC(=O)c2cc3cc(C#N)ccc3[nH]2)cn1 (centres unmarked) | TDO (A172 cells) (Homo sapiens) | − (− = pIC50 <4.50) |

###

Molecular target: TDO (A172 cells) (Homo sapiens)
Construct: This assay utilised cancer cells which expressed either TDO or IDO; host or cells: A172 human glioblastoma cells
Test: TDO cell-based assay (A172), kynurenine production
Settings: A172 human glioblastoma cells, 500 μM L-Trp, 48 h, kynurenine by absorbance at 490 nm
PARAMETER_MEASURED: TDO cellular assay (A172) pIC50

| COMPOUND | PARAMETER_MEASURED | MEAS_VALUE |
| --- | --- | --- |
| N#Cc1ccc2[nH]c(C(=O)NC3(c4ccc(F)cc4)CC3)cc2c1 [Compound 137] | TDO cellular assay (A172) pIC50 | − (− = pIC50 <4.50) |
| COc1ccc2[nH]c(C(=O)N[C@H](C)c3ccccc3)cc2c1 [Compound 175] | TDO cellular assay (A172) pIC50 | − (− = pIC50 <4.50) |
| O=C(NCc1cccc(Cl)c1)c1cc2cc(Cl)ccc2[nH]1 [Compound 33] | TDO cellular assay (A172) pIC50 | − (− = pIC50 <4.50) |
| Cc1nc(C(C)NC(=O)c2cc3cc(C#N)ccc3[nH]2)co1 (centres unmarked) [Compound 222] | TDO cellular assay (A172) pIC50 | − (− = pIC50 <4.50) |

###

Target: IDO (SKOV-3 cells) (Homo sapiens)
Construct: This assay utilised cancer cells which expressed either TDO or IDO; host or cells: SKOV-3 ovary adenocarcinoma cells, IFNγ-induced
Sequence (P14902 whole entry): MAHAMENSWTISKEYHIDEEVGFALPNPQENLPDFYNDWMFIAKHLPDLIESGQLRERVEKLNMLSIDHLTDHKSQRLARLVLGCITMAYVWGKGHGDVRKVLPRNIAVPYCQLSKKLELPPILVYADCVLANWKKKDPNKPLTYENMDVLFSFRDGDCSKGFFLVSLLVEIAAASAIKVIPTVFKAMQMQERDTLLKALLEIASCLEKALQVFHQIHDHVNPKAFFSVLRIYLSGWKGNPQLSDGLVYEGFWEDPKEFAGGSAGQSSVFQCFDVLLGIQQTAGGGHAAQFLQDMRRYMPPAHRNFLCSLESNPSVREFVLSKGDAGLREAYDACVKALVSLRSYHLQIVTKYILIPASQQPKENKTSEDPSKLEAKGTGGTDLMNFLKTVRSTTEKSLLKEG
Assay: IDO cell-based assay (SKOV-3, IFNγ-induced), kynurenine production
Conditions: SKOV-3 ovary adenocarcinoma cells, IFNγ 500 ng/ml, 500 μM L-Trp, 48 h, kynurenine by absorbance at 490 nm

| COMPOUND | IDO cellular assay (SKOV3) pIC50 |
| --- | --- |
| CC(NC(=O)c1cc2ccccc2[nH]1)c1ccccn1 (stereo not shown) | + (+ = pIC50 4.50-<5.00) |
| C[C@@H](NC(=O)c1cc2ccc(F)cc2[nH]1)c1ccccc1 | +++ (+++ = pIC50 ≥5.50) |
| C[C@H](NC(=O)c1cc2cc(F)ccc2[nH]1)c1ccccc1 | + (+ = pIC50 4.50-<5.00) |
| CC(NC(=O)c1cc2cc(Cl)ccc2[nH]1)C1CCCC1 (stereo not shown) | +++ (+++ = pIC50 ≥5.50) |
| CC(NC(=O)c1cc2cc(OC(F)(F)F)ccc2[nH]1)c1cnn(C)c1 (stereo not shown) | +++ (+++ = pIC50 ≥5.50) |
| O=C(NC1(C2CCOCC2)CC1)c1cc2cc(Cl)ccc2[nH]1 | +++ (+++ = pIC50 ≥5.50) |
| O=C(NC1(c2ccccc2)COC1)c1cc2cc(Cl)cnc2[nH]1 | +++ (+++ = pIC50 ≥5.50) |
| CS(=O)(=O)N1CCC(C2(NC(=O)c3cc4cc(Cl)ccc4[nH]3)CC2)CC1 | +++ (+++ = pIC50 ≥5.50) |
| CC(NC(=O)c1cc2ccncc2[nH]1)c1ccccc1 (stereo not shown) | + (+ = pIC50 4.50-<5.00) |
| O=C(NC1(c2ccccc2)CCC1)c1cc2cc(Cl)ccc2[nH]1 | +++ (+++ = pIC50 ≥5.50) |
| Cc1cc(C2(NC(=O)c3cc4cc(Cl)ccc4[nH]3)CC2)no1 | +++ (+++ = pIC50 ≥5.50) |
| Cn1cc(C2(NC(=O)c3cc4cc(Br)ccc4[nH]3)CC2)cn1 | +++ (+++ = pIC50 ≥5.50) |
| CN(C)c1ncc2c(n1)CCC[C@H]2NC(=O)c1cc2cc(F)ccc2[nH]1 | + (+ = pIC50 4.50-<5.00) |
| O=C(NC1(c2ccccc2)CC1)c1cc2cc(Cl)cc(F)c2[nH]1 | +++ (+++ = pIC50 ≥5.50) |
| C[C@@H](NC(=O)c1cc2c(F)c(Cl)ccc2[nH]1)c1ccccc1 | +++ (+++ = pIC50 ≥5.50) |
| N#Cc1ccc2[nH]c(C(=O)NC3(c4ccccc4)CC3)cc2c1 | +++ (+++ = pIC50 ≥5.50) |
| CC(=O)N1CC(C(C)NC(=O)c2cc3cc(Cl)ccc3[nH]2)C1 (stereo not shown) | +++ (+++ = pIC50 ≥5.50) |
| CC(NC(=O)c1cc2cc(Cl)ccc2[nH]1)c1ccc(N(C)C)cc1 (stereo not shown) | +++ (+++ = pIC50 ≥5.50) |
| CC(C)C(NC(=O)c1cc2cc(Cl)ccc2[nH]1)c1cnn(C)c1 (stereo not shown) | +++ (+++ = pIC50 ≥5.50) |
| CC(C)C(NC(=O)c1cc2cc(Cl)ccc2[nH]1)c1ccccc1 (stereo not shown) | +++ (+++ = pIC50 ≥5.50) |
| CNC(=O)c1ccc2[nH]c(C(=O)NC(C)c3ccccc3)cc2c1 (stereo not shown) | + (+ = pIC50 4.50-<5.00) |
| Cc1nc(C2(NC(=O)c3cc4cc(Cl)ccc4[nH]3)CC2)co1 | +++ (+++ = pIC50 ≥5.50) |
| CC1(NC(=O)c2cc3cc(Cl)ccc3[nH]2)CC1 | + (+ = pIC50 4.50-<5.00) |
| O=C(NC1(c2cocn2)CC1)c1cc2cc(Cl)ccc2[nH]1 | +++ (+++ = pIC50 ≥5.50) |
| O=C(NCc1ccc(F)cc1)c1cc2cc(Cl)ccc2[nH]1 | + (+ = pIC50 4.50-<5.00) |
| COc1ccc(C(NC(=O)c2cc3ccccc3[nH]2)C2CC2)cc1 (stereo not shown) | +++ (+++ = pIC50 ≥5.50) |
| O=C(NC1CCOc2ccccc21)c1cc2ccccc2[nH]1 (stereo not shown) | + (+ = pIC50 4.50-<5.00) |
| CC(=O)N1CCC(C(C)NC(=O)c2cc3cc(Cl)ccc3[nH]2)CC1 (stereo not shown) | +++ (+++ = pIC50 ≥5.50) |
| CC(NC(=O)c1cc2ccccc2[nH]1)c1ccc(C(F)(F)F)cc1 (stereo not shown) | +++ (+++ = pIC50 ≥5.50) |
| COc1ccc2[nH]c(C(=O)N[C@H](C)c3ccccc3)cc2c1 | +++ (+++ = pIC50 ≥5.50) |

###

Target: IDO (SKOV-3 cells) (Homo sapiens)
Construct: This assay utilised cancer cells which expressed either TDO or IDO; host or cells: SKOV-3 ovary adenocarcinoma cells, IFNγ-induced
Assay: IDO cell-based assay (SKOV-3, IFNγ-induced), kynurenine production
Settings: SKOV-3 ovary adenocarcinoma cells, IFNγ 500 ng/ml, 500 μM L-Trp, 48 h, kynurenine by absorbance at 490 nm
Excerpt: Two different types of assay were employed: 1. A TDO and IDO biochemical coupled assay which utilised recombinantly produced and purified TDO and IDO enzymes in combination with the enzyme formamidase. This coupled enzyme system allowed conversion of N-formylkynurenine produced by TDO or IDO activity to kynurenine which was then quantified by fluorescence following addition of Erhlich's Reagent. 2. […]
PARAMETER_MEASURED: IDO cellular assay (SKOV3) pIC50

| COMPOUND | PARAMETER_MEASURED | MEAS_VALUE |
| --- | --- | --- |
| Cn1cc(C2(NC(=O)c3cc4cc(OC(F)(F)F)ccc4[nH]3)CCC2)cn1 | IDO cellular assay (SKOV3) pIC50 | +++ (+++ = pIC50 ≥5.50) |
| Cc1noc(C(C)NC(=O)c2cc3cc(Cl)ccc3[nH]2)n1 (stereo not drawn) | IDO cellular assay (SKOV3) pIC50 | +++ (+++ = pIC50 ≥5.50) |
| CC(NC(=O)c1cc2cc(Cl)ccc2[nH]1)c1ccc(N2CCN(C)CC2)cc1 (stereo not drawn) | IDO cellular assay (SKOV3) pIC50 | + (+ = pIC50 4.50-<5.00) |
| Cc1ccc2[nH]c(C(=O)NC(C)c3cccc(F)c3)cc2c1 (stereo not drawn) | IDO cellular assay (SKOV3) pIC50 | +++ (+++ = pIC50 ≥5.50) |
| O=C(Nc1cccc2ccccc12)c1cc2ccc(F)cc2[nH]1 | IDO cellular assay (SKOV3) pIC50 | +++ (+++ = pIC50 ≥5.50) |
| Cn1cc(C2(NC(=O)c3cc4cc(O)ccc4[nH]3)CC2)cn1 | IDO cellular assay (SKOV3) pIC50 | + (+ = pIC50 4.50-<5.00) |

These data points were gathered from patent US10167257B2.
